System: L1210 leukemia ip in BDF1 mice, survival T/C
Assay: NCI In Vivo Anticancer Drug Screen. Data for tumor model L1210 Leukemia (intraperitoneal) in B6D2F1 (BDF1) mice
Details: endpoint: mean survival time; dose: 200.0 mg/kg/injection; schedule: Q01DX001 (ip); vehicle: carboxymethylcellulose (CMC); higher = longer survival
Protocol: The antitumor activity of compounds was measured in mice bearing transplantable tumors. Survival or tumor size were measured and the results are expressed as the measurement made in the treated group (T) divided by the measurement made in the vehicle treated control group (C). The tumor model used in this assay is L1210 Leukemia (intraperitoneal) in B6D2F1 (BDF1) mice
Toxic doses and inconclusive results are not listed.

{"Compound": "O=C1c2ccccc2C(=O)C1(c1ccccc1)c1ccccc1", "Target": "L1210 leukemia ip in BDF1 mice, survival T/C", "T/C": "97 % of control"}
{"Compound": "S=C(NP(=S)(NC(=S)N1CC1)NC(=S)N1CC1)N1CC1", "Target": "L1210 leukemia ip in BDF1 mice, survival T/C", "T/C": "91 % of control"}
{"Compound": "Cn1cnc2c(C#N)c(C#N)nn2c1=O", "Target": "L1210 leukemia ip in BDF1 mice, survival T/C", "T/C": "93 % of control"}
{"Compound": "O=c1[nH]cnc2c1c(Br)cn2C1OC(CO)C(O)C1O (stereo not given)", "Target": "L1210 leukemia ip in BDF1 mice, survival T/C", "T/C": "112 % of control"}
{"Compound": "C=C(C)[C@@H](/C=C/[C@@H](C)[C@H]1CC[C@H]2C3=CC[C@H]4C[C@@H](O)CC[C@]4(C)[C@H]3CC[C@]12C)CC", "Target": "L1210 leukemia ip in BDF1 mice, survival T/C", "T/C": "100 % of control"}

----------
# reported T/C; entries follow
tested on: L1210 leukemia ip in BDF1 mice, survival T/C; assay: NCI In Vivo Anticancer Drug Screen. Data for tumor model L1210 Leukemia (intraperitoneal) in B6D2F1 (BDF1) mice; settings: endpoint: mean survival time; dose: 400.0 mg/kg/injection; schedule: Q01DX009 (ip); vehicle: Klucel (hydroxypropylcellulose) (HPC); higher = longer survival
Toxic doses and inconclusive results are not listed.

{"Compound": "CC(NC(=O)OCc1ccccc1)C(=O)O (configuration not stated)", "T/C": "97 % of control"}
{"Compound": "COc1ccc(CCN2CC(=O)NC(=O)C2)cc1OC", "T/C": "101 % of control"}
{"Compound": "CCCCN1C(=O)C(=O)N(c2ccccc2C(F)(F)F)C1=O", "T/C": "107 % of control"}
{"Compound": "C=CCCCCCCCCC(=O)N/N=C/c1cccs1", "T/C": "105 % of control"}
{"Compound": "O=S(=O)(Nc1cccc(C(F)(F)F)c1)c1ccccc1", "T/C": "101 % of control"}
{"Compound": "CCOC(=O)c1ccc(NC(=O)NCCCCCCNC(=O)Nc2ccc(C(=O)OCC)cc2)cc1", "T/C": "100 % of control"}
{"Compound": "COc1cc(OC)c(NC(=O)c2cc3ccccc3cc2O)cc1Cl", "T/C": "96 % of control"}
{"Compound": "CC1(C)CC(=O)c2c(cc(O)c3ccc(=O)oc23)O1", "T/C": "91 % of control"}
{"Compound": "CCCc1c(C)[nH]c2ccccc12", "T/C": "95 % of control"}
{"Compound": "Nc1n[nH]c(C(=O)O)n1", "T/C": "105 % of control"}
{"Compound": "COc1cccc(N2C(=O)C3C(C2=O)C2(Cl)C(Cl)=C(Cl)C3(Cl)C2(Cl)Cl)c1 (configuration not stated)", "T/C": "89 % of control"}
{"Compound": "c1ccc(/C(=N\\Nc2nc3ccccc3s2)c2ccncc2)cc1", "T/C": "96 % of control"}
